experiment: melting temperature; fluorescence melt of hairpins on a sequencing array, two-state fit, raised by 9.35 °C to match UV melts; conditions: sodium 0.088 M
Reported Tm by item:

- biosequence: "GATCGCCTGGCGATC ((((((...))))))"
  Tm [°C]: 67.9
- biosequence: "GTACGCGGAAACACGTAC (((((.(....).)))))"
  Tm [°C]: 47.9
- biosequence: "GTCCTCGAAAGAGTTGAC ((((((....)))..)))"
  Tm [°C]: 31.2
- biosequence: "GTAGGCGAAAGCCCTAC ((((((....))).)))"
  Tm [°C]: 47.7
- biosequence: "GATCTACTATTAGATC ((((((....))))))"
  Tm [°C]: 38.6
- biosequence: "CGGACGGAAACGTCCCCG ((((((....)))..)))"
  Tm [°C]: 34.7
- biosequence: "GATCAGGGATCTGATC ((((((....))))))"
  Tm [°C]: 57.1
- biosequence: "GTGTGAGGAAACTTACAC ((((.((....)).))))"
  Tm [°C]: 43.9
- biosequence: "GACTACGAAAGTATGTC ((((((....))).)))"
  Tm [°C]: 44.7
- biosequence: "GATCAGTGGACTGATC ((((((....))))))"
  Tm [°C]: 51.8
- biosequence: "GATCTGCGGCAGATC ((((((...))))))"
  Tm [°C]: 50.2
- biosequence: "GATCAAACATTGATC ((((((...))))))"
  Tm [°C]: 41.2
- biosequence: "GATCTGGTCACAGATC ((((((....))))))"
  Tm [°C]: 62.1
- biosequence: "GATCCGAACCGGATC ((((((...))))))"
  Tm [°C]: 57
- biosequence: "GACGACGAAAGTCCCGTC ((((((....)))..)))"
  Tm [°C]: 34.3
- biosequence: "GCACCCGAAAGGGCGTGC ((((((....)))..)))"
  Tm [°C]: 51.2
- biosequence: "GCGTGCGAAAGCACCCGC ((((((....)))..)))"
  Tm [°C]: 43.7
- biosequence: "GTTTAGCCGAAAGGCAAC (((..(((....))))))"
  Tm [°C]: 33.7
- biosequence: "GATCTTTTGCAAGATC ((((((....))))))"
  Tm [°C]: 42.8
- biosequence: "GGGTGCGGAAACGTACCC ((((.((....)).))))"
  Tm [°C]: 61.2
- biosequence: "GGCAGCGAAAGCTATGCC ((((((....)))..)))"
  Tm [°C]: 55.3
- biosequence: "GATCTGCCGACAGATC ((((((....))))))"
  Tm [°C]: 50.1
- biosequence: "GCCCAGGGAAACCCGAGC ((.(.((....)).).))"
  Tm [°C]: 28.3
- biosequence: "GTGCTTGAAAAAGCAC ((((((....))))))"
  Tm [°C]: 63.3
- biosequence: "GCGGACCGCCGC ((((....))))"
  Tm [°C]: 55.8
- biosequence: "GTTCGCGAAAGCGCGAAC ((((((....)))..)))"
  Tm [°C]: 65

Cited source: the array DNA melting data of Ke et al. (doi:10.1101/2024.01.08.574731)
